Tested on: 301 cancer cell lines from different tumor types (OncoPanel; HD Biosciences)
Test: 2D cell viability inhibition assay (CellTiter-Glo) in cancer cell line panel
Format: cell-based
Conditions: RERFLCMS cell line
observedProperty: EC50 (nM)
Report as a plain number; the unit nM is understood.

Problem: Field request: EC50 | item: "CC(C)c1ccc(N(C)c2ccc3c(c2)OCC[C@H]3CNc2cnccc2C(=O)O)cc1"
Result: 23.5

---

System: 301 cancer cell lines from different tumor types (OncoPanel; HD Biosciences)
Assay: 2D cell viability inhibition assay (CellTiter-Glo) in cancer cell line panel
Type: cell-based
Conditions: Homo sapiens, 143B, 143B cell line
observedProperty: IC50
# output: numeric value plus its unit

Problem: Field request: IC50 | item: "CC(C)c1ccc(N(C)c2ccc3c(c2)OCC[C@H]3CNc2cnccc2C(=O)O)cc1"
Result: 14.4 nM

---

Test system: 301 cancer cell lines from different tumor types (OncoPanel; HD Biosciences)
Assay: 2D cell viability inhibition assay (CellTiter-Glo) in cancer cell line panel
Format: cell-based
Conditions: Homo sapiens, HCT-15, HCT15 cell line
observedProperty: pEC50
pEC50 here is simply -log10 of the concentration when that concentration is written in mol/L.

Problem: Field request: pEC50 | item: "CC(C)c1ccc(N(C)c2ccc3c(c2)OCC[C@H]3CNc2cnccc2C(=O)O)cc1"
Result: 8.83

---

Test system: 301 cancer cell lines from different tumor types (OncoPanel; HD Biosciences)
Experiment: 2D cell viability inhibition assay (CellTiter-Glo) in cancer cell line panel
Assay type: cell-based
Conditions: Homo sapiens, A549, A549 cell line
observedProperty: IC50 (nM)
Report as a plain number; the unit nM is understood.

Problem: Identify the measured IC50 of "CC(C)c1ccc(N(C)c2ccc3c(c2)OCC[C@H]3CNc2cnccc2C(=O)O)cc1" for 301 cancer cell lines from different tumor types (OncoPanel; HD Biosciences).
Result: 32.4

---

System: 301 cancer cell lines from different tumor types (OncoPanel; HD Biosciences)
Experiment: 2D cell viability inhibition assay (CellTiter-Glo) in cancer cell line panel
Format: cell-based
Settings: Homo sapiens, WM-115, WM115 cell line
observedProperty: IC50
# output: numeric value plus its unit

Problem: Field request: IC50 | item: "CC(C)c1ccc(N(C)c2ccc3c(c2)OCC[C@H]3CNc2cnccc2C(=O)O)cc1"
Result: 478 nM

---

System: 301 cancer cell lines from different tumor types (OncoPanel; HD Biosciences)
Test: 2D cell viability inhibition assay (CellTiter-Glo) in cancer cell line panel
Type: cell-based
Conditions: MPP89 cell line
observedProperty: IC50

Problem: Identify the measured IC50 of "CC(C)c1ccc(N(C)c2ccc3c(c2)OCC[C@H]3CNc2cnccc2C(=O)O)cc1" for 301 cancer cell lines from different tumor types (OncoPanel; HD Biosciences).
Result: > 10 µM

---

System: 301 cancer cell lines from different tumor types (OncoPanel; HD Biosciences)
Assay: 2D cell viability inhibition assay (CellTiter-Glo) in cancer cell line panel
Assay type: cell-based
Settings: Homo sapiens, TF-1, TF1 cell line
observedProperty: pIC50
pIC50 here is simply -log10 of the concentration when that concentration is written in mol/L.

Problem: Field request: pIC50 | item: "CC(C)c1ccc(N(C)c2ccc3c(c2)OCC[C@H]3CNc2cnccc2C(=O)O)cc1"
Result: 8.59

---

System: 301 cancer cell lines from different tumor types (OncoPanel; HD Biosciences)
Experiment: 2D cell viability inhibition assay (CellTiter-Glo) in cancer cell line panel
Assay type: cell-based
Settings: Homo sapiens, HSC-4, HSC4 cell line
observedProperty: EC50 (nM)
Report as a plain number; the unit nM is understood.

Problem: Field request: EC50 | item: CC(C)c1ccc(N(C)c2ccc3c(c2)OCC[C@H]3CNc2cnccc2C(=O)O)cc1 [Compound 1]
Result: 4.33

---

Test system: 301 cancer cell lines from different tumor types (OncoPanel; HD Biosciences)
Assay: 2D cell viability inhibition assay (CellTiter-Glo) in cancer cell line panel
Assay type: cell-based
Details: 168 h, TE8; oesophagus, squamous cell carcinoma
pIC50: −log10 of the molar value.
observedProperty: pIC50

Problem: Identify the measured pIC50 of CC(C)c1ccc(N(C)c2ccc3c(c2)OCC[C@H]3CNc2cnccc2C(=O)O)cc1 [Compound 1] for 301 cancer cell lines from different tumor types (OncoPanel; HD Biosciences).
Result: < 5.00

---

Test system: 301 cancer cell lines from different tumor types (OncoPanel; HD Biosciences)
Experiment: 2D cell viability inhibition assay (CellTiter-Glo) in cancer cell line panel
Format: cell-based
Details: Homo sapiens, U-937, U937 cell line
observedProperty: EC50 (nM)
Report as a plain number; the unit nM is understood.

Problem: Field request: EC50 | item: "CC(C)c1ccc(N(C)c2ccc3c(c2)OCC[C@H]3CNc2cnccc2C(=O)O)cc1"
Result: 2.73

---

Test system: 301 cancer cell lines from different tumor types (OncoPanel; HD Biosciences)
Experiment: 2D cell viability inhibition assay (CellTiter-Glo) in cancer cell line panel
Type: cell-based
Conditions: Homo sapiens, SW480, SW480 cell line
observedProperty: EC50 (nM)
Report as a plain number; the unit nM is understood.

Problem: Field request: EC50 | item: "CC(C)c1ccc(N(C)c2ccc3c(c2)OCC[C@H]3CNc2cnccc2C(=O)O)cc1"
Result: 7.73

---

Tested on: 301 cancer cell lines from different tumor types (OncoPanel; HD Biosciences)
Experiment: 2D cell viability inhibition assay (CellTiter-Glo) in cancer cell line panel
Format: cell-based
Conditions: Homo sapiens, COLO-679, COLO679 cell line
observedProperty: EC50
# output: numeric value plus its unit

Problem: Field request: EC50 | item: CC(C)c1ccc(N(C)c2ccc3c(c2)OCC[C@H]3CNc2cnccc2C(=O)O)cc1 [Compound 1]
Result: 2340 nM

---

System: 301 cancer cell lines from different tumor types (OncoPanel; HD Biosciences)
Assay: 2D cell viability inhibition assay (CellTiter-Glo) in cancer cell line panel
Type: cell-based
Conditions: Homo sapiens, KATO III, KATOIII cell line
observedProperty: IC50 (nM)
Report as a plain number; the unit nM is understood.

Problem: Field request: IC50 | item: "CC(C)c1ccc(N(C)c2ccc3c(c2)OCC[C@H]3CNc2cnccc2C(=O)O)cc1"
Result: 43.8

---

System: 301 cancer cell lines from different tumor types (OncoPanel; HD Biosciences)
Assay: 2D cell viability inhibition assay (CellTiter-Glo) in cancer cell line panel
Assay type: cell-based
Details: Homo sapiens, Granta-519, GRANTA519 cell line
observedProperty: IC50

Problem: Field request: IC50 | item: "CC(C)c1ccc(N(C)c2ccc3c(c2)OCC[C@H]3CNc2cnccc2C(=O)O)cc1"
Result: 17.6 nM

---

Test system: 301 cancer cell lines from different tumor types (OncoPanel; HD Biosciences)
Experiment: 2D cell viability inhibition assay (CellTiter-Glo) in cancer cell line panel
Format: cell-based
Conditions: Homo sapiens, SW1990, SW1990 cell line
observedProperty: IC50

Problem: Field request: IC50 | item: "CC(C)c1ccc(N(C)c2ccc3c(c2)OCC[C@H]3CNc2cnccc2C(=O)O)cc1"
Result: > 10 µM

---

Test system: 301 cancer cell lines from different tumor types (OncoPanel; HD Biosciences)
Assay: 2D cell viability inhibition assay (CellTiter-Glo) in cancer cell line panel
Assay type: cell-based
Details: Homo sapiens, NCI-H82, NCIH82 cell line
observedProperty: pEC50
pEC50 here is simply -log10 of the concentration when that concentration is written in mol/L.

Problem: Field request: pEC50 | item: "CC(C)c1ccc(N(C)c2ccc3c(c2)OCC[C@H]3CNc2cnccc2C(=O)O)cc1"
Result: 8.48

---

System: 301 cancer cell lines from different tumor types (OncoPanel; HD Biosciences)
Assay: 2D cell viability inhibition assay (CellTiter-Glo) in cancer cell line panel
Type: cell-based
Details: Homo sapiens, MDA-MB-361, 168 h, MDAMB361; breast, NS; 168 hours
observedProperty: IC50

Problem: Field request: IC50 | item: "CC(C)c1ccc(N(C)c2ccc3c(c2)OCC[C@H]3CNc2cnccc2C(=O)O)cc1"
Result: > 10 µM

---

System: 301 cancer cell lines from different tumor types (OncoPanel; HD Biosciences)
Experiment: 2D cell viability inhibition assay (CellTiter-Glo) in cancer cell line panel
Format: cell-based
Conditions: Homo sapiens, NCI-H1299, NCIH1299 cell line
Procedure: In a larger screening study, compound 1 was evaluated across a broad cancer cell line panel (OncoPanel; HD Biosciences) composed of 301 cancer cell lines from different tumor types. 2D cell viability inhibition assays were performed in multiwell plates seeded with cells from the panel. […] Cultures were incubated for 168 hours after which the number of viable cells in each test well was assessed using the CellTiter-Glo® Luminescent Cell Viability Assay. […]
observedProperty: pEC50
pEC50 here is simply -log10 of the concentration when that concentration is written in mol/L.

Problem: Field request: pEC50 | item: "CC(C)c1ccc(N(C)c2ccc3c(c2)OCC[C@H]3CNc2cnccc2C(=O)O)cc1"
Result: 8.27

---

Tested on: 301 cancer cell lines from different tumor types (OncoPanel; HD Biosciences)
Assay: 2D cell viability inhibition assay (CellTiter-Glo) in cancer cell line panel
Assay type: cell-based
Details: SNU878, SNU878 cell line
pIC50: −log10 of the molar value.
observedProperty: pIC50

Problem: Field request: pIC50 | item: "CC(C)c1ccc(N(C)c2ccc3c(c2)OCC[C@H]3CNc2cnccc2C(=O)O)cc1"
Result: < 5.00
